Values compiled from ChEMBL document CHEMBL1157539.

tested on: Plasmodium falciparum; experiment: GSK_TCMDC: Inhibition of Plasmodium falciparum Dd2 in whole red blood cells, using parasite LDH activity as an index of growth. Test compounds present at 2uM; assay type: functional
For each record, check the reported Inhibition: if it is below 60% write fulfilled, else write not fulfilled.

[[record]]
compound = "CSC1=NC(=Nc2c(C)cccc2C)C2(CCCCC2)N1c1ccccc1Cl"
discrete_label = "fulfilled"

[[record]]
compound = "CC(C)(CNCc1ccc(C(F)(F)F)cc1)c1nc(-c2ccnc(N)n2)c(-c2ccc(Cl)c(O)c2)[nH]1.Cl"
discrete_label = "fulfilled"

[[record]]
compound = "COc1ccc(-c2cnc3ccc(NCc4ccc(S(N)(=O)=O)cc4)nn23)cn1"
discrete_label = "not fulfilled"

[[record]]
compound = "CO/C(=C\\C=C\\c1cc2cc(Cl)c(Cl)cc2[nH]1)C(=O)NCCCN1CCN(c2cccc(Cl)c2)CC1"
discrete_label = "not fulfilled"

[[record]]
compound = "Cl.Nc1c2ccccc2nc2cc([N+](=O)[O-])ccc12"
discrete_label = "fulfilled"

[[record]]
compound = "CCNC(=O)Nc1ccc(-c2ccc(-c3nc4cccc(C)c4[nH]3)s2)cc1"
discrete_label = "fulfilled"

[[record]]
compound = "COc1cccc(CCNCCCCCCNCCc2ccc(Cl)cc2)c1.Cl"
discrete_label = "fulfilled"

[[record]]
compound = "COc1ccc(F)cc1-c1cccc(CNC2CCN(CC3Cn4c(=O)ccc5ccc(F)c3c54)CC2)c1.O=C(O)C(F)(F)F (centres undefined)"
discrete_label = "fulfilled"


* * *

The following molecules are shown together with reported Inhibition values.
test system: HepG2; assay: GSK_TCMDC: Percent inhibition of human HepG2 cell line. Test compounds present at 10uM.; type: functional
readout label: Inhibition (%)

[[record]]
molecule = "CNC(=O)/C=C/c1cc(NC(=O)Nc2cc(C)nc3c(F)cccc23)ccc1OC"
value_units = "%"
endpoint_value = 0

[[record]]
molecule = "O=C(Nc1cccc(-c2csc(-c3ccccc3)n2)c1)c1cccs1"
value_units = "%"
endpoint_value = 0

[[record]]
molecule = "COc1cccc(C(=O)NCc2cccs2)c1OCc1ccccc1"
value_units = "%"
endpoint_value = 0

[[record]]
molecule = "CCOc1cc(Cc2cnc(N)nc2N)cc(OCC)c1OCC"
value_units = "%"
endpoint_value = 0

[[record]]
molecule = "Cc1cc2c(cc1C(F)(F)F)N(C(=O)Nc1ccc(OCCN(C)C)c(C(F)(F)F)c1)CC2.Cl"
value_units = "%"
endpoint_value = 38

[[record]]
molecule = "CN1CCN(c2ccc(-c3nc4ccc(OCc5cc(Cl)cc(Cl)c5)c(C(N)=O)c4[nH]3)cc2)CC1"
value_units = "%"
endpoint_value = 45

[[record]]
molecule = "COc1ccc(C2=CCN(c3ccc(Cl)c(Cl)c3)C2=O)cc1OCCN1CCCCC1.Cl"
value_units = "%"
endpoint_value = 19

[[record]]
molecule = "COc1cc(-n2cnc3cc(-c4ccc([N+](=O)[O-])cc4)sc3c2=O)ccc1OCCN1CCCC1.O=C(O)C(F)(F)F"
value_units = "%"
endpoint_value = 44

[[record]]
molecule = "Cl.N[C@@H](CCNCc1ccc(-c2cccnc2)cc1)Cc1ccc(F)c(F)c1"
value_units = "%"
endpoint_value = 45

[[record]]
molecule = "O=C(Nc1cccc(CN2CCCN(Cc3ccccc3)CC2)c1)c1ccc(Cl)c(Cl)c1.O=C(O)C(F)(F)F"
value_units = "%"
endpoint_value = 23

[[record]]
molecule = "COc1ccc(CCN(Cc2cccs2)C(=O)c2cc3sccc3n2C)cc1OC"
value_units = "%"
endpoint_value = 0

[[record]]
molecule = "CCN(CC)CCCC(C)N=c1cc(C=Cc2ccc([N+](=O)[O-])cc2)[nH]c2ccc(OC)cc12 (stereo not drawn)"
value_units = "%"
endpoint_value = 37

[[record]]
molecule = "Cc1ccc(NC(=O)c2ccnc(N3CCN(c4ccncc4)CC3)c2)cc1F.O=C(O)C(F)(F)F"
value_units = "%"
endpoint_value = 43

[[record]]
molecule = "CCCCCCN1CCCN(Cc2ccc(C(=O)Nc3ccc(C)c(F)c3)cc2)CC1.O=C(O)C(F)(F)F"
value_units = "%"
endpoint_value = 47

[[record]]
molecule = "COc1ccc2nccc([C@@H](O)CN3CCC(NC(=O)c4ccc(-c5ccc(C#N)cc5)cc4)CC3)c2c1"
value_units = "%"
endpoint_value = 42

[[record]]
molecule = "CCOc1cc2ncnc(Nc3ccc(OCc4c(F)cccc4F)c(OC)c3)c2cc1OCC.Cl"
value_units = "%"
endpoint_value = 7

[[record]]
molecule = "Cc1ccc(CNc2ccc3ncc(-c4cccc(C(=O)NCCN(C)C)c4)n3n2)c(C)c1"
value_units = "%"
endpoint_value = 97

[[record]]
molecule = "Nc1nc(N)c2c(ccc3c2ccn3CCCC(F)(F)F)n1"
value_units = "%"
endpoint_value = 66

[[record]]
molecule = "CC(C)CC(NC(=O)c1cc2ccccc2s1)C(=O)N1CCCCCC1c1ccc(C(C)(C)C)cc1 (stereo not drawn)"
value_units = "%"
endpoint_value = 23

[[record]]
molecule = "CCOC(=O)c1cnc2c(OC)cc(OC)c(Cl)c2c1Nc1cccc(C)c1C"
value_units = "%"
endpoint_value = 5

[[record]]
molecule = "N=C(N)NN=CC(=O)Nc1cccc(C(F)(F)F)c1.O=S(=O)(O)O"
value_units = "%"
endpoint_value = 21

[[record]]
molecule = "COc1ccc(-c2ccc(NC(=O)c3cccc(C#N)c3)cc2)cc1CN(C)C.O=C(O)C(F)(F)F"
value_units = "%"
endpoint_value = 11

[[record]]
molecule = "Nc1ncc(Cc2ccc3c(ccc4ccccc43)c2)c(N)n1"
value_units = "%"
endpoint_value = 9

[[record]]
molecule = "O=C(NCCNc1nc(NCCNC(=O)Nc2ccccc2)c2ccc(=O)n(-c3c(F)cccc3F)c2n1)Nc1ccccc1"
value_units = "%"
endpoint_value = 1

[[record]]
molecule = "Cl.c1ccc2c(C3CCN(CCCCOc4ccc5c(c4)CCN(C4CCC4)CC5)CC3)c[nH]c2c1"
value_units = "%"
endpoint_value = 80

[[record]]
molecule = "Cc1ccn2c(C(=O)N3CCN(c4cccc5c4nc(-c4ccoc4)n5Cc4ccccn4)CC3)c(C)nc2c1"
value_units = "%"
endpoint_value = 2

[[record]]
molecule = "O=C(c1ccccc1)N1CCC(CN2CCOC(c3ccccc3)(c3ccccc3)C2)CC1"
value_units = "%"
endpoint_value = 14

[[record]]
molecule = "Cc1nc2ccc3ccc(CNc4ccc5c(c4)CN([C@@H](CCC(=O)O)C(=O)O)C5=O)cc3c2c(=O)[nH]1"
value_units = "%"
endpoint_value = 41

[[record]]
molecule = "CCCN1CCN(CCNc2c3ccccc3nc3ccccc23)CC1"
value_units = "%"
endpoint_value = 13

[[record]]
molecule = "CS(=O)(=O)Nc1ccc(-c2cnc3[nH]cc(-c4ccc(C(=O)O)cc4)c3c2)cc1"
value_units = "%"
endpoint_value = 0

[[record]]
molecule = "COc1ccc2nc(C)cc(N/N=C/c3ccc([N+](=O)[O-])o3)c2c1"
value_units = "%"
endpoint_value = 18

[[record]]
molecule = "C=CCc1ccc(C[C@H](NC(=O)OC(C)(C)C)C(=O)OC)cc1"
value_units = "%"
endpoint_value = 77

[[record]]
molecule = "CC(C)(C)c1ccc(CN2CCCCC(NC(=O)c3cc(-c4ccccc4F)cs3)C2)cc1.O=C(O)C(F)(F)F (stereo not drawn)"
value_units = "%"
endpoint_value = 6

[[record]]
molecule = "CN1CCN(CCCN(Cc2cccc(-c3cccc(CNCCc4ccccc4)c3)c2)C(=O)Nc2ccccc2)CC1.O=C(O)C(F)(F)F"
value_units = "%"
endpoint_value = 92

[[record]]
molecule = "O=C(Cc1ccc(F)cc1)NC1CCN(c2ccnc3cc(Cl)ccc23)C1.O=C(O)C(F)(F)F (stereo not drawn)"
value_units = "%"
endpoint_value = 0

[[record]]
molecule = "COc1ccc(C(=O)O)cc1OCc1ccccc1"
value_units = "%"
endpoint_value = 0

[[record]]
molecule = "CCC(c1ccccc1)c1nn2c(-c3cccs3)nnc2s1 (stereo not drawn)"
value_units = "%"
endpoint_value = 10

[[record]]
molecule = "Cc1c(S(=O)(=O)Nc2ccc3nccc(N4CCN[C@H](C)C4)c3c2)sc2ccc(Cl)cc12.Cl"
value_units = "%"
endpoint_value = 16

